Numbers sourced from patent US20110118131A1.

# Study target: T1, IL-1beta (UniProt P01584 117-269)
# T1 construct: also called IL-1β
# Protocol details: Biacore
Outcome measure: binding result

binder="XPA23 Fab, heavy chain S30K (Fab, V domains shown) VH: EVQLLESGGGLVQPGGSLRLSCAASGFTFKKYFMFWVRQAPGKGLEWVSVISPSGGMTRYADSVKGRFTISRDNSKNTLYLQMNSLRAEDTAVYYCARVGYGGNSDYWGQGTLVTVSS VL: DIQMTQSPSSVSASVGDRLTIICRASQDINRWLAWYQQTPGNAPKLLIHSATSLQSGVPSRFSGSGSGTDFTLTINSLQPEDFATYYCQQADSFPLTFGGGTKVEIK" result="no binding"
binder="XPA23 Fab, heavy chain S30Q (Fab, V domains shown) VH: EVQLLESGGGLVQPGGSLRLSCAASGFTFQKYFMFWVRQAPGKGLEWVSVISPSGGMTRYADSVKGRFTISRDNSKNTLYLQMNSLRAEDTAVYYCARVGYGGNSDYWGQGTLVTVSS VL: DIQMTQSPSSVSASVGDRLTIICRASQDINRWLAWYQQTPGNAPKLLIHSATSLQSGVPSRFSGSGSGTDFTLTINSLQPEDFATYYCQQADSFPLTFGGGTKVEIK" result="no binding"
binder="XPA23 Fab, heavy chain N104D (Fab, V domains shown) VH: EVQLLESGGGLVQPGGSLRLSCAASGFTFSKYFMFWVRQAPGKGLEWVSVISPSGGMTRYADSVKGRFTISRDNSKNTLYLQMNSLRAEDTAVYYCARVGYGGDSDYWGQGTLVTVSS VL: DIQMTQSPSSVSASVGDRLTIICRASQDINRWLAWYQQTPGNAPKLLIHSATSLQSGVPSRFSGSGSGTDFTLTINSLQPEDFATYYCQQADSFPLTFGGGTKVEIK" result="no binding"
